Assayed Target: recombinant human NK3 receptor (Homo sapiens, UniProt P29371)
Sequence (P29371 1-465): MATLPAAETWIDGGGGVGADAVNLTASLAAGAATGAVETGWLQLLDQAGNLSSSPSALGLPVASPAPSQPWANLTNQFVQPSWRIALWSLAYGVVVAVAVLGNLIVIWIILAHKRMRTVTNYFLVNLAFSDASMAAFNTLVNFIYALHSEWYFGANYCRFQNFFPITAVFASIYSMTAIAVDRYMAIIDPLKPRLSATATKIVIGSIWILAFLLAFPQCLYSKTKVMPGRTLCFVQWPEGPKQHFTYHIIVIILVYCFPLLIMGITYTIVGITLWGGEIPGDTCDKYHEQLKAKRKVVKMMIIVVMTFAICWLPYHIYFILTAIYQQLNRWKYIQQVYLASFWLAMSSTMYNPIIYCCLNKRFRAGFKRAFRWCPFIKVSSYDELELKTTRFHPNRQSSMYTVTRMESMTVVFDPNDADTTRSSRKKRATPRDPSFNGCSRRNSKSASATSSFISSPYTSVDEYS
Assay Protocol: [3H]SR142801 competition binding assay
Assay Context: hNK3 receptor binding, [3H]SR142801, membranes from HEK293 cells transiently expressing recombinant human NK3 receptor
Endpoint Label: Ki (nM)

# Compound, Ki, nM
rows = [
    ("CN(Cc1ccc(C(F)(F)F)c(F)c1)[C@H]1CN(C(=O)c2ccc(N3CCOCC3)nc2)C[C@@H]1c1ccc(Cl)c(Cl)c1 (racemic) [Example 27]", 5.7),
    ("CN(Cc1ccc(C(F)(F)F)c(F)c1)[C@H]1CN(C(=O)c2ccc(-c3cnco3)cc2)C[C@@H]1c1ccc(Cl)c(Cl)c1 (racemic) [Example 67]", 4.5),
    ("CN(Cc1ccc(C(F)(F)F)c(F)c1)[C@H]1CN(C(=O)c2ccc3nc[nH]c3c2)C[C@@H]1c1ccc(Cl)c(Cl)c1 (racemic) [Example 60]", 17.3),
    ("CN(Cc1ccc(C(F)(F)F)c(F)c1)[C@H]1CN(C(=O)c2cc(S(C)(=O)=O)ccc2F)C[C@@H]1c1ccc(Cl)c(Cl)c1 (racemic) [Example 20]", 41.7),
    ("Cc1cc(C(=O)N2C[C@H](c3ccc(Cl)c(Cl)c3)[C@@H](N(C)Cc3ccc(C(F)(F)F)c(F)c3)C2)ccn1 (racemic) [Example 33]", 11.1),
    ("CN(Cc1ccc(C(F)(F)F)c(F)c1)[C@H]1CN(C(=O)c2ccc(C#N)nc2)C[C@@H]1c1ccc(Cl)c(Cl)c1 (racemic) [Example 26]", 14.8),
    ("CN(Cc1ccc(C(F)(F)F)cc1)[C@H]1CN(C(=O)c2ccc(C#N)cc2)C[C@@H]1c1ccc(Cl)c(Cl)c1 (racemic) [Example 68]", 14.6),
    ("CN(Cc1ccc(C(F)(F)F)c(F)c1)[C@H]1CN(C(=O)c2ccc3nn[nH]c3c2)C[C@@H]1c1ccc(Cl)c(Cl)c1 (racemic) [Example 59]", 31.8),
]

[I] CN(Cc1ccc(C(F)(F)F)c(F)c1)[C@H]1CN(C(=O)c2ccc(-c3nnco3)cc2)C[C@@H]1c1ccc(Cl)c(Cl)c1 (racemic) [Example 47]
[II] CN(Cc1ccc(C#N)c(F)c1)[C@H]1CN(C(=O)c2ccc(C#N)cc2)C[C@@H]1c1ccc(Cl)c(Cl)c1 (racemic) [Example 18]
[III] COc1ccc(C(=O)N2C[C@H](c3ccc(Cl)c(Cl)c3)[C@@H](N(C)Cc3ccc(C(F)(F)F)c(F)c3)C2)cn1 (racemic) [Example 29]
INPUT: Sort the 3 compounds by Ki; largest first, smallest last. Thanks in advance for listing the labels in the requested order.
OUTPUT: II, III, I
(II: 42 nM, III: 8.4 nM, I: 2.3 nM)

[a] CN(Cc1ccc(C(F)(F)F)c(F)c1)[C@H]1CN(C(=O)c2ccc(S(C)(=O)=O)cc2)C[C@@H]1c1ccc(Cl)c(Cl)c1 (racemic) [Example 22]
[b] Cc1ccc(C(=O)N2C[C@H](c3ccc(Cl)c(Cl)c3)[C@@H](N(C)Cc3ccc(C(F)(F)F)c(F)c3)C2)cn1 (racemic) [Example 25]
[c] CN(Cc1ccc(C(F)(F)F)c(F)c1)[C@H]1CN(C(=O)c2ccc(-c3cccnc3)cc2)C[C@@H]1c1ccc(Cl)c(Cl)c1 (racemic) [Example 44]
INPUT: Would you mind ranking these compounds by ascending Ki? Thanks in advance for listing the labels in the requested order.
OUTPUT: c, b, a
(c: 5.6 nM, b: 15.2 nM, a: 30.2 nM)

* * *

Assayed Target: recombinant human NK3 receptor (Homo sapiens)
Assay Protocol: [3H]SR142801 competition binding assay
Assay Context: hNK3 receptor binding, [3H]SR142801, membranes from HEK293 cells transiently expressing recombinant human NK3 receptor
Method: [^3H]SR142801 competition binding assay hNK3 receptor binding experiment were performed using [^3H]SR142801 (Catalog No. TRK1035, specific activity: 74.0 Ci/mmol, Amersham, GE Healthcare UK limited, Buckinghamshire, UK) and membrane isolated from HEK293 cells transiently expressing recombinant human NK3 receptor. […] Nonspecific binding was measured in the presence of 10 μM SB222200 for both radioligands. […]
pKi: −log10 of the molar value.
Endpoint Label: pKi

[I] CC(=O)c1ccc(C(=O)N2C[C@H](c3ccc(Cl)c(Cl)c3)[C@@H](N(C)Cc3ccc(C(F)(F)F)c(F)c3)C2)cc1 (racemic)
[II] CN(Cc1ccc(C(F)(F)F)c(F)c1)[C@H]1CN(C(=O)c2ccc(C#N)cc2F)C[C@@H]1c1ccc(Cl)c(Cl)c1 (racemic)
INPUT: I'd appreciate it if you could identify which of I and II has the greater pKi. # answer = label of selected item
OUTPUT: I
(I: 8.17, II: 7.89)

* * *

Assayed Target: recombinant human NK3 receptor (Homo sapiens)
Assay Protocol: [3H]SR142801 competition binding assay
Assay Context: hNK3 receptor binding, [3H]SR142801, membranes from HEK293 cells transiently expressing recombinant human NK3 receptor
Endpoint Label: Ki (nM)

# Molecule, Assayed Target, Ki [nM]
measured = [
    ("CN(Cc1ccc(C(F)(F)F)c(F)c1)[C@H]1CN(C(=O)c2ccc(N3CCOCC3)cc2)C[C@@H]1c1ccc(Cl)c(Cl)c1 (racemic)", "recombinant human NK3 receptor (Homo sapiens)", 9),
    ("CN(Cc1ccc(C(F)(F)F)c(F)c1)[C@H]1CN(C(=O)c2ccc(N3CCN(C(=O)OC(C)(C)C)CC3)nc2)C[C@@H]1c1ccc(Cl)c(Cl)c1 (racemic)", "recombinant human NK3 receptor (Homo sapiens)", 24.7),
    ("CN(Cc1ccc(C(F)(F)F)c(F)c1)[C@H]1CN(C(=O)c2ccc(-n3ccnc3)cc2)C[C@@H]1c1ccc(Cl)c(Cl)c1 (racemic)", "recombinant human NK3 receptor (Homo sapiens)", 10.7),
    ("CN(Cc1ccc(C(F)(F)F)c(F)c1)[C@H]1CN(C(=O)c2ccc(N3CCCS3(=O)=O)cc2)C[C@@H]1c1ccc(Cl)c(Cl)c1 (racemic)", "recombinant human NK3 receptor (Homo sapiens)", 33.5),
]

[a] CN(Cc1ccc(C(F)(F)F)c(F)c1)[C@H]1CN(C(=O)c2ccc(F)nc2)C[C@@H]1c1ccc(Cl)c(Cl)c1 (racemic)
[b] CN(Cc1ccc(C(F)(F)F)c(F)c1)[C@H]1CN(C(=O)c2ccc(N3CCS(=O)(=O)CC3)nc2)C[C@@H]1c1ccc(Cl)c(Cl)c1 (racemic)
INPUT: In terms of reported Ki, does a or b have the smaller number? # answer = label of selected item
OUTPUT: b

* * *

Assayed Target: recombinant human NK3 receptor (Homo sapiens, UniProt P29371)
Assay Protocol: [3H]SR142801 competition binding assay
Assay Context: hNK3 receptor binding, [3H]SR142801, membranes from HEK293 cells transiently expressing recombinant human NK3 receptor
pKi: −log10 of the molar value.
Endpoint Label: pKi

# Molecule, pKi
data = [
    ("CN(Cc1ccc(C(F)(F)F)c(F)c1)[C@H]1CN(C(=O)c2ccc(-n3cncn3)cc2)C[C@@H]1c1ccc(Cl)c(Cl)c1 (racemic) [Example 40]", 8.57),
    ("CN(Cc1ccc(C(F)(F)F)c(F)c1)[C@H]1CN(C(=O)c2ccc3cnccc3n2)C[C@@H]1c1ccc(Cl)c(Cl)c1 (racemic) [Example 51]", 7.84),
    ("CN(Cc1ccc(C(F)(F)F)c(F)c1)[C@H]1CN(C(=O)c2ccc(C#N)cc2)C[C@@H]1c1ccc(Cl)c(F)c1 (racemic) [Example 66]", 7.90),
    ("CN(Cc1ccc(C(F)(F)F)c(F)c1)[C@H]1CN(C(=O)c2ccc(O)nc2)C[C@@H]1c1ccc(Cl)c(Cl)c1 (racemic) [Example 48]", 7.32),
]

[1] CN(Cc1ccc(C(F)(F)F)c(F)c1)[C@H]1CN(C(=O)c2cccc(C#N)c2)C[C@@H]1c1ccc(Cl)c(Cl)c1 (racemic) [Example 9]
[2] CN(Cc1ccc(C(F)(F)F)c(F)c1)[C@H]1CN(C(=O)c2ccc(-n3cccn3)nc2)C[C@@H]1c1ccc(Cl)c(Cl)c1 (racemic) [Example 30]
INPUT: In terms of reported pKi, does 1 or 2 have the smaller number? # answer = label of selected item
OUTPUT: 1
